- ASSAYED SYSTEM: T1, Glypican-3 on human HCC cells (Hep3B, HepG2) and in HCC tissue (human, UniProt P51654 25-554)
- T1 construct: whole, on cells; Endogenous GPC3 on cells; also used here for GPC3 in sections of Hep3B xenografts and human HCC specimens; also called GPC3
- T1 sequence (P51654 25-554 limits assumed): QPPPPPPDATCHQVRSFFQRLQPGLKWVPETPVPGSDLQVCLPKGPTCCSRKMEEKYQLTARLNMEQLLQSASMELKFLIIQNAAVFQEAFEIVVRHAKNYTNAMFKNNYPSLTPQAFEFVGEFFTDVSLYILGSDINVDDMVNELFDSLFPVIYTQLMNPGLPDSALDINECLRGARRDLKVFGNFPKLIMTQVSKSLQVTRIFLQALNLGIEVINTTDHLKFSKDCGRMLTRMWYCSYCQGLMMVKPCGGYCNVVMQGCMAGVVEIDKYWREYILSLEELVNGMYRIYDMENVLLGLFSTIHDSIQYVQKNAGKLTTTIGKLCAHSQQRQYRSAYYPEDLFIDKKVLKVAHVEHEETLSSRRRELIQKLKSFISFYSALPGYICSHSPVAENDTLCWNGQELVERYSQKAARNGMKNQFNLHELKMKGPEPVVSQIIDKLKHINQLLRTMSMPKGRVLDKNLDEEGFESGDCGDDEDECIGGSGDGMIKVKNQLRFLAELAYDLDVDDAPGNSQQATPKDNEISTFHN
- TEST PROTOCOL: flow cytometry, mean fluorescence of Hep3B cells with 0-200 nM peptide; apparent dissociation constant
Ends that are not written are not given here.
READOUT LABEL: Kd (nM)
Only the number, expressed in nM, is required.

Consider ALLANHEELFQTGGGSK(sulfo‑Cy5.5) (also called lead candidate GPC3 peptide; optimized GPC3 peptide) [ALL*-Cy5.5 peptide reagent (ALLANHEELFQT-GGGSK-Cy5.5)] . Its measured Kd is 71
